- TESTED_SYSTEM: Auxenochlorella protothecoides ApPPO1 (SEQ ID NO: 1) variant V213C, fused to MBP (Auxenochlorella protothecoides, UniProt A0A087SQM0, V213C)
- Sequence (A0A087SQM0 entry or part of it V213C): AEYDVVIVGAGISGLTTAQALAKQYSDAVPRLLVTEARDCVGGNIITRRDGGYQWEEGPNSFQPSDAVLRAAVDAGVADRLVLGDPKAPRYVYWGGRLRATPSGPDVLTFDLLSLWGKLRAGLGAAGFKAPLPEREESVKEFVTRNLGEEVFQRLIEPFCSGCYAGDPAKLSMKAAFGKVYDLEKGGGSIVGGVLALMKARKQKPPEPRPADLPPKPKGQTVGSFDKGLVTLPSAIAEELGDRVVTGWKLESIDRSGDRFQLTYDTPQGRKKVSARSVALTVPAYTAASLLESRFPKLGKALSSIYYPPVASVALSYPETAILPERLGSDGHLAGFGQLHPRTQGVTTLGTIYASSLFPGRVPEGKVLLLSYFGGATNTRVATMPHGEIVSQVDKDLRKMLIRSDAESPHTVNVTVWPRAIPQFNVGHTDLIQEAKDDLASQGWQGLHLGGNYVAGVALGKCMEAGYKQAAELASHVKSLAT
- METHOD_NOTES: biochemical
ASSAY_METRIC: IC50 (nM)
Could you give me the number in nM? Just the number is fine.

Problem: If you can, please state the reported IC50 value of COC(=O)CCNC(=O)C(C)Sc1cc(-n2c(=O)cc(C(F)(F)F)n(C)c2=O)c(F)cc1Cl (stereo not shown) .
Result: 81

---

- TESTED_SYSTEM: Auxenochlorella protothecoides ApPPO1 (SEQ ID NO: 1) variant L389T, fused to MBP (Auxenochlorella protothecoides, UniProt A0A087SQM0, L389T)
- Sequence (A0A087SQM0 entry or part of it L389T): as the sequence (A0A087SQM0 entry or part of it V213C) above, with C163V, L339T counted along it
- METHOD_NOTES: PPO enzyme inhibition assay (IC50), MBP-fused PPO
ASSAY_METRIC: pIC50
// pIC50 is dimensionless: -log10 of concentration (M)

Problem: If you can, please state the reported pIC50 value of COC(=O)CCNC(=O)C(C)Sc1cc(-n2c(=O)cc(C(F)(F)F)n(C)c2=O)c(F)cc1Cl (stereo not shown) .
Result: 6.15

---

- TESTED_SYSTEM: Auxenochlorella protothecoides ApPPO1 (SEQ ID NO: 1) variant V360M, fused to MBP (Auxenochlorella protothecoides, UniProt A0A087SQM0, V360M)
- Sequence (A0A087SQM0 entry or part of it V360M): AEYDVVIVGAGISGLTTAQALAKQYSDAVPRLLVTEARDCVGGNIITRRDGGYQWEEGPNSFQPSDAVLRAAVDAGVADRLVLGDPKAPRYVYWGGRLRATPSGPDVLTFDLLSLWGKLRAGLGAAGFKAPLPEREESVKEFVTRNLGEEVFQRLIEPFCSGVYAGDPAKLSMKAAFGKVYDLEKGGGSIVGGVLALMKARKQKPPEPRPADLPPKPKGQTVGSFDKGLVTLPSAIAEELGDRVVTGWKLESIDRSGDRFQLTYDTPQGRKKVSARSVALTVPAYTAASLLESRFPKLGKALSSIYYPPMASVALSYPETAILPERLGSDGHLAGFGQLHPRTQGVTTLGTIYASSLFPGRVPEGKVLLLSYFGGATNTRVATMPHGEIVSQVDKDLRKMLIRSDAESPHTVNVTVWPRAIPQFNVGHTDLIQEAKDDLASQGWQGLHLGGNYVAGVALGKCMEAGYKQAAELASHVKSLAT
- METHOD_NOTES: PPO enzyme inhibition assay (IC50), MBP-fused PPO
ASSAY_METRIC: IC50

Problem: If you can, please state the reported IC50 value of COC(=O)CCNC(=O)C(C)Sc1cc(-n2c(=O)cc(C(F)(F)F)n(C)c2=O)c(F)cc1Cl (stereo not shown) [tiafenacil] .
Result: 75 nM

---

- TESTED_SYSTEM: Auxenochlorella protothecoides ApPPO1 (SEQ ID NO: 1) variant F386V, fused to MBP (Auxenochlorella protothecoides, UniProt A0A087SQM0, F386V)
- Sequence (A0A087SQM0 entry or part of it F386V): as the sequence (A0A087SQM0 entry or part of it V360M) above, with M310V, F336V counted along it
- METHOD_NOTES: PPO enzyme inhibition assay (IC50), MBP-fused PPO
ASSAY_METRIC: IC50 (nM)
Could you give me the number in nM? Just the number is fine.

Problem: If you can, please state the reported IC50 value of COC(=O)CCNC(=O)C(C)Sc1cc(-n2c(=O)cc(C(F)(F)F)n(C)c2=O)c(F)cc1Cl (stereo not shown) .
Result: 368

---

- TESTED_SYSTEM: Myxococcus xanthus MxPPO (SEQ ID NO: 3) variant R95A, fused to MBP (Myxococcus xanthus, UniProt P56601, R95A)
- Construct: For encoding the PPO protein (MxPPO)
- Sequence (P56601 whole entry R95A, the tested form may be a part): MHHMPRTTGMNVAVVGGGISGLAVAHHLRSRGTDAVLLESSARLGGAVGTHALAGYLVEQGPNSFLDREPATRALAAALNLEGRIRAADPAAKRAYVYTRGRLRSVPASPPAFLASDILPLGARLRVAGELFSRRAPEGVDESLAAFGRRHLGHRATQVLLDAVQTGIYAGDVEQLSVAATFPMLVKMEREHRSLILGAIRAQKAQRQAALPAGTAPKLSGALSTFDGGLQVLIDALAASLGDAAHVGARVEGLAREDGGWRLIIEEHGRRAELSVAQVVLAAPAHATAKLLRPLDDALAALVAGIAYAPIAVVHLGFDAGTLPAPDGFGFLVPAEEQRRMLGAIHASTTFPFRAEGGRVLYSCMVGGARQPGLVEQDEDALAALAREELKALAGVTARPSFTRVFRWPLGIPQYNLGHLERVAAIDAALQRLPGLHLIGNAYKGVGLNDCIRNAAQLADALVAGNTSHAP
- METHOD_NOTES: biochemical
ASSAY_METRIC: pIC50
// pIC50 is dimensionless: -log10 of concentration (M)

Problem: If you can, please state the reported pIC50 value of COC(=O)CCNC(=O)C(C)Sc1cc(-n2c(=O)cc(C(F)(F)F)n(C)c2=O)c(F)cc1Cl (stereo not shown) [tiafenacil] .
Result: 5.63

---

- TESTED_SYSTEM: Auxenochlorella protothecoides ApPPO1 (SEQ ID NO: 1) variant R140A, fused to MBP (Auxenochlorella protothecoides, UniProt A0A087SQM0, R140A)
- Sequence (A0A087SQM0 entry or part of it R140A): as the sequence (A0A087SQM0 entry or part of it V213C) above, with R90A, C163V counted along it
- METHOD_NOTES: PPO enzyme inhibition assay (IC50), MBP-fused PPO
ASSAY_METRIC: pIC50
// pIC50 is dimensionless: -log10 of concentration (M)

Problem: If you can, please state the reported pIC50 value of COC(=O)CCNC(=O)C(C)Sc1cc(-n2c(=O)cc(C(F)(F)F)n(C)c2=O)c(F)cc1Cl (stereo not shown) .
Result: 7.07

---

- TESTED_SYSTEM: Myxococcus xanthus MxPPO (SEQ ID NO: 3) variant I311M, fused to MBP (Myxococcus xanthus, UniProt P56601, I311M)
- Sequence (P56601 whole entry I311M, the tested form may be a part): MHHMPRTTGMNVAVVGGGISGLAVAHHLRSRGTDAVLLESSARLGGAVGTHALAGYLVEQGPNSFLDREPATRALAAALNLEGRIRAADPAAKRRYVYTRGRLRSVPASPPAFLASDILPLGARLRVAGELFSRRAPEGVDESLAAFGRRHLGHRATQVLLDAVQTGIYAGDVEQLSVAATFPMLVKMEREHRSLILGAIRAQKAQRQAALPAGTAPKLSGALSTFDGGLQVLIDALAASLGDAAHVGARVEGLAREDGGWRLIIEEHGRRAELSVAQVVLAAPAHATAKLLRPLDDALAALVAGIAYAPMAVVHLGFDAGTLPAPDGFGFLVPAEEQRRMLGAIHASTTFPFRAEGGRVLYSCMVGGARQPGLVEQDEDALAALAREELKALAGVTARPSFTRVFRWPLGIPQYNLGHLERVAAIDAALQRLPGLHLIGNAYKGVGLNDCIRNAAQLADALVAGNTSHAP
- METHOD_NOTES: biochemical
ASSAY_METRIC: pIC50
// pIC50 is dimensionless: -log10 of concentration (M)

Problem: If you can, please state the reported pIC50 value of COC(=O)CCNC(=O)C(C)Sc1cc(-n2c(=O)cc(C(F)(F)F)n(C)c2=O)c(F)cc1Cl (stereo not shown) .
Result: 6.02

---

- TESTED_SYSTEM: Myxococcus xanthus MxPPO (SEQ ID NO: 3) variant V164A, fused to MBP (Myxococcus xanthus, UniProt P56601, V164A)
- Construct: For encoding the PPO protein (MxPPO)
- Sequence (P56601 whole entry V164A, the tested form may be a part): as the sequence (P56601 whole entry R95A, the tested form may be a part) above, with A95R, V164A counted along it
- METHOD_NOTES: PPO enzyme inhibition assay (IC50), MBP-fused PPO (Table 15)
ASSAY_METRIC: pIC50
// pIC50 is dimensionless: -log10 of concentration (M)

Problem: If you can, please state the reported pIC50 value of COC(=O)CCNC(=O)C(C)Sc1cc(-n2c(=O)cc(C(F)(F)F)n(C)c2=O)c(F)cc1Cl (stereo not shown) .
Result: 6.44

---

- TESTED_SYSTEM: Auxenochlorella protothecoides ApPPO1 (protoporphyrinogen IX oxidase), wild type, SEQ ID NO: 1, fused to MBP (Auxenochlorella protothecoides, UniProt A0A087SQM0)
- Sequence (A0A087SQM0 51-532): as the sequence (A0A087SQM0 entry or part of it V213C) above, with C163V counted along it
ASSAY_METRIC: pIC50
// pIC50 is dimensionless: -log10 of concentration (M)

Problem: If you can, please state the reported pIC50 value of COC(=O)CCNC(=O)C(C)Sc1cc(-n2c(=O)cc(C(F)(F)F)n(C)c2=O)c(F)cc1Cl (stereo not shown) .
Result: 7.68

---

- TESTED_SYSTEM: Myxococcus xanthus MxPPO (SEQ ID NO: 3) variant F329V, fused to MBP (Myxococcus xanthus, UniProt P56601, F329V)
- Construct: For encoding the PPO protein (MxPPO); made in house; host or cells: BL21 CodonPlus(DE3) E. coli
- Sequence (P56601 whole entry F329V, the tested form may be a part): as the sequence (P56601 whole entry R95A, the tested form may be a part) above, with A95R, F329V counted along it
- METHOD_NOTES: PPO enzyme inhibition assay (IC50), MBP-fused PPO (Table 15)
- Type: biochemical
ASSAY_METRIC: IC50 (µM)
Could you give me the number in µM? Just the number is fine.

Problem: If you can, please state the reported IC50 value of COC(=O)CCNC(=O)C(C)Sc1cc(-n2c(=O)cc(C(F)(F)F)n(C)c2=O)c(F)cc1Cl (stereo not shown) .
Result: 0.239

This collection of values is drawn from patent US20220042033A1.
